In this section we review reported melting point values for a set of molecules.

**Q:** Report melting point for COc1cccc(/C=C/c2ccc(F)cc2)c1OC [trans stilbene 17] please.
**A:** 50 to 51 °C

**Q:** Report melting point for Fc1cccc(/C=C/c2ccc(F)cc2F)c1 [trans stilbene 35] please.
**A:** 60 to 61 °C

**Q:** Report melting point for COc1ccc(/C=C/c2cc(F)ccc2F)cc1 [trans stilbene 23] please.
**A:** 109 to 110 °C

**Q:** Report melting point for COc1ccc(OC)c(/C=C/c2ccc(F)cc2)c1 [trans stilbene 18] please.
**A:** 58 to 59 °C

**Q:** Report melting point for Cc1ccc(/C=C/c2ccc(F)c(F)c2)cc1 [trans stilbene 22] please.
**A:** 90 to 92 °C

**Q:** Report melting point for COc1ccc(/C=C/c2ccc(F)c(F)c2)cc1 [trans stilbene 26] please.
**A:** 73 to 74 °C

**Q:** Report melting point for COc1cccc(/C=C/c2ccccc2OC)c1 [trans stilbene 49, (E)-1-Methoxy-2-(3-methoxystyryl)benzene] please.
**A:** 49 to 50 °C

**Q:** Report melting point for Fc1cccc(/C=C/c2ccc(F)c(F)c2)c1 [trans stilbene 30] please.
**A:** 48 to 49 °C

**Q:** Report melting point for Fc1ccc(/C=C/c2ccccc2F)cc1F [trans stilbene 24] please.
**A:** 85 to 86 °C

**Q:** Report melting point for COc1cccc(/C=C/c2cc(OC)ccc2OC)c1 [trans stilbene 50] please.
**A:** 48 to 49 °C

**Q:** Report melting point for Fc1ccc(/C=C/c2ccccc2F)c(F)c1 [trans stilbene 36] please.
**A:** 84 to 85 °C

----------
In this section we review reported melting point values for a set of compounds.

Past entries and their recorded results:
Fc1cccc(/C=C/c2cc(F)ccc2F)c1 [trans stilbene 34] = 73 to 74 °C
COc1cccc(/C=C/c2ccc(C)cc2)c1OC [trans stilbene 48] = 38 to 40 °C
COc1cccc(/C=C/c2ccc(C(F)(F)F)cc2)c1OC [trans stilbene 54] = 67 to 69 °C
Cc1ccc(/C=C/c2ccc(F)cc2F)cc1 [trans stilbene 37] = 72 to 73 °C

**Q:** Report melting point for COc1ccccc1/C=C/c1ccccc1F [trans stilbene 10, (E)-1-Fluoro-2-(2-methoxystyryl)benzene] please.
**A:** 34 to 35 °C

**Q:** Report melting point for Fc1ccc(/C=C/c2cc(F)ccc2F)cc1 [trans stilbene 40] please.
**A:** 76 to 77 °C

Each recorded value in this set is attributed to patent US20190160021A1.
